biological target: T1, hmm.hTfRC (REGN2431), human transferrin receptor extracellular domain with hexahistidine-myc-myc tag (human, UniProt P02786 89-760); experiment: SPR (Biacore), mAb captured on anti-human Fc, 100 nM hTFR-mmh, 25 C
T1 construct: Monomeric recombinant protein, 79210 g/mol; also called hTFR-mmh; His-myc-myc-hTFRC ecto
T1 sequence (P02786 other isoform, or with tags, fused parts or gaps): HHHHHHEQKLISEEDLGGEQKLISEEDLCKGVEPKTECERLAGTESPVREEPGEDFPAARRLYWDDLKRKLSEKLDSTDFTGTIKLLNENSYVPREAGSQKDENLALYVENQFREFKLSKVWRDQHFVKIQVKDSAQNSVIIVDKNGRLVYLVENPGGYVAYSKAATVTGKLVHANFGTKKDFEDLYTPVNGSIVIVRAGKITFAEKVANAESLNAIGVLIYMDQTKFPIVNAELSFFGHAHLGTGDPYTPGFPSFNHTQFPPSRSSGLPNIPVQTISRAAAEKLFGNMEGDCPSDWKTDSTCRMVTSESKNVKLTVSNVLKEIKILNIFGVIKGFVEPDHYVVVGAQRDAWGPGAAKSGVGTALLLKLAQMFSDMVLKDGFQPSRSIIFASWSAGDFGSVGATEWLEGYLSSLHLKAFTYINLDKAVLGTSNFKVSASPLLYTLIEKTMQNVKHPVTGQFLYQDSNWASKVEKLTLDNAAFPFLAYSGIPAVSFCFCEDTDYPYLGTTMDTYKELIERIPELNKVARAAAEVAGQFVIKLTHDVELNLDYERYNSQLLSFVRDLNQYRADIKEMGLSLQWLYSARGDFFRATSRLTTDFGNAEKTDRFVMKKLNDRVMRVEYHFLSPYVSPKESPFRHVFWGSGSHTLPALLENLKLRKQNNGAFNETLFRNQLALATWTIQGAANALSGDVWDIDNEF
measurement.label: kon (M⁻¹ s⁻¹)

[[record]]
binder = "12812B (antibody, human IgG1, kappa, V domains shown, Tested as bivalent human IgG1 from CHO primary supernatant) VH: QVQLVQSGAEVKKPGSSVRVSCKASRGTFSSYAISWVRQAPGQGLEWMGGIIPIFGTANYAQKFLARVTITADESTSTAYMELSSLRSEDTAVYYCAREKGWNYFDYWGQGTLVTVSS VL: DIQMTQSPPSVSASVGDRVTITCRASQGISSWLAWYQQKPGKAPKLLIYAASSLQSGVPSRFSGSGSGTDFTLTISSLQPEDFATYYCQQANSFPRTFGQGTKVEIKR"
readout_units = "M⁻¹ s⁻¹"
numeric_readout = 433000

[[record]]
binder = "69326 (antibody, human IgG1, kappa, V domains shown, Tested as bivalent human IgG1 from CHO primary supernatant) VH: EVQLVESGGGLVQPGGSLRLSCAVSGFIFSSYEMNWVRQAPGKGLEWVSYISSSGSTIFYADSVKGRFTISRDNAKNSLYLQMNSLRAEDTAVYYCVSGVVLFDVWGQGTMVTVSS VL: EIVMTQSPATLSVSPGERATLSCRASQSVSSNFAWYQQKPGQAPRLLIYSASSRATGIPVRFSGSGSGTEFTLTISSLQSEDFAVYYCQQYNIWPRTFGQGTKVEIKR"
readout_units = "M⁻¹ s⁻¹"
numeric_readout = 115000

[[record]]
binder = "69331 (antibody, human IgG1, kappa, V domains shown, Tested as bivalent human IgG1 from CHO primary supernatant) VH: QVQLVESGGGVVQPGRSLRLSCIASGFTFSVYGIHWVRQAPGKGLEWMAVISHDGNIKHYADSVKGRFTISRDNSKNTLYLQINSLRTEDTAVYYCAKDTWNSLDTFDIWGQGTMVTVSS VL: DIQLTQSPSSLSASVGDRVTITCWASQGISSYLAWYQQKPGKAPKLLIYAASTLQSGVPSRFSGSGSGTEFTLTISSLQPEDFATYYCQQLNSYPLTFGGGTKVEIKR"
readout_units = "M⁻¹ s⁻¹"
numeric_readout = 114000

[[record]]
binder = "69307 (antibody, human IgG1, kappa, V domains shown, Tested as bivalent human IgG1 from CHO primary supernatant) VH: EVQLVESGGGLVQPGGSLRLSCTASGFTFSNYWMTWVRQAPGKGLEWVANIKEDGSEKEYVDSVKGRFTISRDNAKNSLYLQMNSLRGEDTAVYYCARDGEQLVDYYYYYVMDVWGQGTTVTVSS VL: DIQMTQSPSSVSASVGDRVTITCRASQGISSWLAWYQQKPGKAPKLLIYAASSLQSGVPSRFSGSGSGTDFTLTISSLQPEDFATYYCQKADSLPYAFGQGTKLEIKR"
readout_units = "M⁻¹ s⁻¹"
numeric_readout = 190000

[[record]]
binder = "69340 (antibody, human IgG1, kappa, V domains shown, Tested as bivalent human IgG1 from CHO primary supernatant) VH: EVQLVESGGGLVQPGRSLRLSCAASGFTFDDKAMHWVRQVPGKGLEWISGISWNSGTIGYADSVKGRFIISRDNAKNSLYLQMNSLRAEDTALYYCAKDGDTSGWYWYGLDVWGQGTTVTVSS VL: EIVLTQSPATLSLSPGERATLSCRASQSVSSYLAWYQQKPGQAPRLLIHDVSNRATGIPARFSGSGSGTDFTLTISSLEPEDFVVYYCQQRSDWPITFGQGTRLEIKR"
readout_units = "M⁻¹ s⁻¹"
numeric_readout = 144000

